Target: MCL-1 (Homo sapiens (Human))
Assay: Cell free Mcl-1:Bim affinity assay (fluorescence polarization competition)
Type: binding
Details: 15 nM MCL-1, 5 nM FITC-Bim, 1 hour at room temperature; class symbols; read-out: BIM_Ki
pKi: −log10 of the molar value.
assayReadout: pKi

Known results for molecules:
molecule	pKi
CO[C@@H]1/C=C/CN(C)[C@H](C)C(=O)NS(=O)(=O)c2ccc3c(c2)N(C[C@@H]2CC[C@H]21)C[C@@]1(CCCc2cc(Cl)ccc21)CO3 [Example 123]	7.00 to 9.00
CON(C)C(=O)O[C@H]1/C=C/COC(C)(C)C(=O)NS(=O)(=O)c2ccc3c(c2)N(C[C@@H]2CC[C@H]21)C[C@@]1(CCOc2cc(Cl)ccc21)CO3 [Example 306]	> 9.00
COCCN1CCN(C(=O)O[C@H]2/C=C/COC(C)(C)C(=O)NS(=O)(=O)c3ccc4c(c3)N(C[C@@H]3CC[C@H]32)C[C@@]2(CCCc3cc(Cl)ccc32)CO4)CC1 [Example 46]	> 9.00
CN1C/C=C/[C@H](OC(=O)N2CCC2)[C@@H]2CC[C@H]2CN2C[C@@]3(CCCc4cc(Cl)ccc43)COc3ccc(cc32)S(=O)(=O)NC(=O)C1(C)C [Example 216]	> 9.00
CO[C@H]1/C=C/COC2(CC2)C(=O)NS(=O)(=O)c2ccc3c(c2)N(C[C@@H]2CC[C@H]21)C[C@@]1(CCCc2cc(Cl)ccc21)CO3 [Example 28]	> 9.00
CN1C/C=C/[C@H](OC(=O)N[C@H]2CCOC2)[C@@H]2CC[C@H]2CN2C[C@@]3(CCCc4cc(Cl)ccc43)COc3ccc(cc32)S(=O)(=O)NC(=O)C12CCC2 [Example 295]	7.00 to 9.00
CN1CCCN(C(=O)O[C@H]2/C=C/COC(C)(C)C(=O)NS(=O)(=O)c3ccc4c(c3)N(C[C@@H]3CC[C@H]32)C[C@@]2(CCCc3cc(Cl)ccc32)CO4)CC1 [Example 54]	> 9.00
CN(C)C(=O)CO[C@H]1/C=C/COC2(CC2)C(=O)NS(=O)(=O)c2ccc3c(c2)N(C[C@@H]2CC[C@H]21)C[C@@]1(CCCc2cc(Cl)ccc21)CO3 [Example 142]	> 9.00
CC1(C)OC/C=C/[C@H](OC(=O)NC2CCC2)[C@@H]2CC[C@H]2CN2C[C@@]3(CCCc4cc(Cl)ccc43)COc3ccc(cc32)S(=O)(=O)NC1=O [Example 184]	> 9.00
CC1(C)OC/C=C/[C@H](OCCN2C[C@@H](F)[C@@H](F)C2)[C@@H]2CC[C@H]2CN2C[C@@]3(CCCc4cc(Cl)ccc43)COc3ccc(cc32)S(=O)(=O)NC1=O [Example 269]	> 9.00

Shift focus to the following entry.
Query: # return recorded pKi for input CC1(C)OC/C=C/[C@H](OC(=O)N2CCCC2)[C@@H]2CC[C@H]2CN2C[C@@]3(CCCc4cc(Cl)ccc43)COc3ccc(cc32)S(=O)(=O)NC1=O [Example 173]
Reply: > 9.00

----------
Biological target: MCL-1 (Homo sapiens (Human), UniProt Q07820)
Sequence (Q07820 whole entry): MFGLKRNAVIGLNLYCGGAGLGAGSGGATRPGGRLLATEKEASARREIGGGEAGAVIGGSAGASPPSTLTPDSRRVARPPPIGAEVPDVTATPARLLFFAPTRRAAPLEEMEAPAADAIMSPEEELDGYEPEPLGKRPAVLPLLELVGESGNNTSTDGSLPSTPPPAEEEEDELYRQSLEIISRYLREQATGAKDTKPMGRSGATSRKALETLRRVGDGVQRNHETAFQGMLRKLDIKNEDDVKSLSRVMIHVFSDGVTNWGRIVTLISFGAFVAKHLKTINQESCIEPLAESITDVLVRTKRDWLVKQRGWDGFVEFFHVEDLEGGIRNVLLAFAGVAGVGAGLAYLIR
Experiment: Cell free Mcl-1:Bim affinity assay (fluorescence polarization competition)
Type: binding
Conditions: 15 nM MCL-1, 5 nM FITC-Bim, 1 hour at room temperature; class symbols; read-out: BIM_Ki
Would you kindly list Ki for each of these molecules?

// solved cases for Ki follow
compoundSmiles	testedOn	Ki
O=C(O[C@H]1/C=C/COC2(CCC2)C(=O)NS(=O)(=O)c2ccc3c(c2)N(C[C@@H]2CC[C@H]21)C[C@@]1(CCCc2cc(Cl)ccc21)CO3)N1CCC1	MCL-1 (Homo sapiens (Human), UniProt Q07820)	< 1 nM
CC1(C)OC/C=C/[C@H](OCC(=O)N2C[C@@H](F)[C@@H](F)C2)[C@@H]2CC[C@H]2CN2C[C@@]3(CCCc4cc(Cl)ccc43)COc3ccc(cc32)S(=O)(=O)NC1=O	MCL-1 (Homo sapiens (Human), UniProt Q07820)	< 1 nM
CO[C@@H]1/C=C/C[C@H](C)[C@@H](CC(=O)N(C)C)C(=O)NS(=O)(=O)c2ccc3c(c2)N(C[C@@H]2CC[C@H]21)C[C@@]1(CCCc2cc(Cl)ccc21)CO3	MCL-1 (Homo sapiens (Human), UniProt Q07820)	1 to 100 nM
CC1(C)OC/C=C/[C@H](OCC(=O)N[C@@H]2CCOC2)[C@@H]2CC[C@H]2CN2C[C@@]3(CCCc4cc(Cl)ccc43)COc3ccc(cc32)S(=O)(=O)NC1=O	MCL-1 (Homo sapiens (Human), UniProt Q07820)	< 1 nM

For the next question, use this molecule.
Query: Using the record for CN(C)C(=O)O[C@@H]1/C=C/CN(C)C(C)(C)C(=O)NS(=O)(=O)c2ccc3c(c2)N(C[C@@H]2CC[C@H]21)C[C@@]1(CCCc2cc(Cl)ccc21)CO3 , state its measured Ki.
Reply: 1 to 100 nM
